system: large crabgrass (Digitaria sanguinalis, DIGSA); assay: Post-emerge greenhouse herbicide test, phytotoxicity rating; assay type: in vivo; conditions: 63 g al/ha, 14 days after application
Listed next: entries and their corresponding DIGSA phytotoxicity rating (0-100).
Please state the value as a number alone, without comment.

Field: example entries. Status: answers known.
- MOLECULE: "O=c1n(-c2cc(Oc3ccc([N+](=O)[O-])cc3C(F)(F)F)c(Cl)cc2F)c(=S)n2n1CCCC2 [Compound 8-14]"
  DIGSA phytotoxicity rating (0-100): 0
- MOLECULE: "CCN1CC(=O)N(c2cc(Oc3ncccn3)c(Cl)cc2F)C1=O [Compound 8-2]"
  DIGSA phytotoxicity rating (0-100): 0
- MOLECULE: "O=c1n(CCCF)nnn1-c1cc(Oc2ccc(C(F)(F)F)cn2)c(Cl)cc1Cl [Compound 6-9]"
  DIGSA phytotoxicity rating (0-100): 0
- MOLECULE: "O=c1sc(=Nc2cc(Oc3ncccc3C(F)(F)F)c(Cl)cc2F)n2n1CCCC2 [Compound 7-1]"
  DIGSA phytotoxicity rating (0-100): 30
- MOLECULE: "O=C1C2CCCCN2C(=O)N1c1cc(Oc2ncccc2C(F)(F)F)c(Cl)cc1F (centres unmarked) [Compound 8-4]"
  DIGSA phytotoxicity rating (0-100): 0

The molecule Cn1c(C(F)(F)F)nc(-c2cc(Oc3ncccn3)c(Cl)cc2F)c1Cl [Compound 2-3] showed DIGSA phytotoxicity rating (0-100) equal to 0

The molecule O=c1n(-c2cc(Oc3ccccc3[N+](=O)[O-])c(Cl)cc2F)c(=S)n2n1CCCC2 [Compound 8-6] showed DIGSA phytotoxicity rating (0-100) equal to 0

The molecule O=c1n(CCCF)nnn1-c1cc(Oc2ncccc2C(F)(F)F)c(Cl)cc1Cl [Compound 6-7] showed DIGSA phytotoxicity rating (0-100) equal to 0

The molecule O=c1n(CCCF)nnn1-c1cc(Oc2ncccc2[N+](=O)[O-])c(Cl)cc1F [Compound 6-2] showed DIGSA phytotoxicity rating (0-100) equal to 0

The molecule CCOC(=O)C(C)Oc1ccc(Oc2cc(-n3c(=O)n4n(c3=S)CCCC4)c(F)cc2Cl)cc1 (centres unmarked) [Compound 8-11] showed DIGSA phytotoxicity rating (0-100) equal to 50

The molecule Cn1nc(-c2cc(Oc3ccc(C#N)cn3)c(Cl)cc2F)c(Cl)c1C(F)(F)F [Compound 1-4] showed DIGSA phytotoxicity rating (0-100) equal to 20

The molecule N#Cc1cc([N+](=O)[O-])ccc1Oc1cc(-n2c(=O)n3n(c2=S)CCCC3)c(F)cc1Cl [Compound 8-12] showed DIGSA phytotoxicity rating (0-100) equal to 0

The molecule O=c1cc2n(c(=O)n1-c1cc(Oc3ncccn3)c(Cl)cc1F)CCC2 [Compound 5-12] showed DIGSA phytotoxicity rating (0-100) equal to 0

The molecule Cn1nc(-c2cc(Oc3ncccc3C(F)(F)F)c(Cl)cc2F)c(Cl)c1C(F)(F)F [Compound 1-2] showed DIGSA phytotoxicity rating (0-100) equal to 0

---

Listed next: entries and their corresponding AMARE phytotoxicity rating (0-100).
test system: redroot pigweed (Amaranthus retroflexus, AMARE); test: Post-emerge greenhouse herbicide test, phytotoxicity rating; assay type: in vivo; details: 63 g al/ha, 14 days after application
Please state the value as a number alone, without comment.

Field: example entries. Status: answers known.
- MOLECULE: "Cn1nc(-c2cc(Oc3cccc(F)n3)c(Cl)cc2F)c(Cl)c1C(F)(F)F [Compound 1-5]"
  AMARE phytotoxicity rating (0-100): 100
- MOLECULE: "Cc1nn(-c2cc(Oc3ncccn3)c(Cl)cc2F)c(=O)n1C(F)F [Compound 3-1]"
  AMARE phytotoxicity rating (0-100): 95
- MOLECULE: "O=c1n(-c2cc(Oc3ccc([N+](=O)[O-])cc3C(F)(F)F)c(Cl)cc2F)c(=S)n2n1CCCC2 [Compound 8-14]"
  AMARE phytotoxicity rating (0-100): 70
- MOLECULE: "O=c1n(CCCF)nnn1-c1cc(Oc2ncccn2)c(Cl)cc1Cl [Compound 6-14]"
  AMARE phytotoxicity rating (0-100): 20
- MOLECULE: "O=c1n(-c2cc(Oc3ccccc3)c(Cl)cc2F)c(=S)n2n1CCCC2 [Compound 8-5]"
  AMARE phytotoxicity rating (0-100): 100
- MOLECULE: "Cn1nc(-c2cc(Oc3nc(F)c(F)cc3F)c(Cl)cc2F)c(Cl)c1C(F)(F)F [Compound 1-6]"
  AMARE phytotoxicity rating (0-100): 99
- MOLECULE: "CCN1CC(=O)N(c2cc(Oc3ncccn3)c(Cl)cc2F)C1=O [Compound 8-2]"
  AMARE phytotoxicity rating (0-100): 60
- MOLECULE: "Nc1ccc(Oc2cc(-n3c(=O)n4n(c3=S)CCCC4)c(F)cc2Cl)cc1 [Compound 8-9]"
  AMARE phytotoxicity rating (0-100): 90
- MOLECULE: "O=c1n(-c2cc(Oc3ccccc3[N+](=O)[O-])c(Cl)cc2F)c(=S)n2n1CCCC2 [Compound 8-6]"
  AMARE phytotoxicity rating (0-100): 100
- MOLECULE: "COc1cc(OC)nc(Oc2cc(-n3nnn(CCCF)c3=O)c(F)cc2Cl)n1 [Compound 6-15]"
  AMARE phytotoxicity rating (0-100): 20

The molecule O=C1C2CCCCN2C(=O)N1c1cc(Oc2ncccc2C(F)(F)F)c(Cl)cc1F (stereo not drawn) [Compound 8-4] showed AMARE phytotoxicity rating (0-100) equal to 60

The molecule O=c1sc(=Nc2cc(Oc3ncccc3C(F)(F)F)c(Cl)cc2F)n2n1CCCC2 [Compound 7-1] showed AMARE phytotoxicity rating (0-100) equal to 100

The molecule O=c1cc2n(c(=O)n1-c1cc(Oc3ncccn3)c(Cl)cc1F)CCC2 [Compound 5-12] showed AMARE phytotoxicity rating (0-100) equal to 80

The molecule Cn1nc(-c2cc(Oc3ccc(C#N)cn3)c(Cl)cc2F)c(Cl)c1C(F)(F)F [Compound 1-4] showed AMARE phytotoxicity rating (0-100) equal to 100

---

Listed next: entries and their corresponding phytotoxicity rating IPOHE.
system: ivyleaf morningglory (Ipomoea hederacea, IPOHE); experiment: Post-emerge greenhouse herbicide test, phytotoxicity rating; format: in vivo; conditions: rate 63 g ai/ha, 14 days after application, scale 0-100
Please state the value as a number alone, without comment.

Field: example entries. Status: answers known.
- SMILES_TEXT: "O=c1n(-c2cc(Oc3ncccc3[N+](=O)[O-])c(Cl)cc2F)c(=S)n2n1CCCC2"
  OBS_VALUE: 100
- SMILES_TEXT: "Cc1nsc(Oc2cc(-n3c(=O)n4n(c3=S)CCCC4)c(F)cc2Cl)c1[N+](=O)[O-]"
  OBS_VALUE: 40
- SMILES_TEXT: "O=c1n(-c2cc(Oc3nc(F)c(F)cc3F)c(Cl)cc2F)c(=S)n2n1CCCC2"
  OBS_VALUE: 90

The molecule COc1cc(OC)nc(Oc2cc(-n3c(=O)n4n(c3=S)CCCC4)c(F)cc2Cl)n1 showed phytotoxicity rating IPOHE equal to 90

---

Listed next: entries and their corresponding IPOHE phytotoxicity rating (0-100).
tested on: ivyleaf morningglory (Ipomoea hederacea, IPOHE); test: Post-emerge greenhouse herbicide test, phytotoxicity rating; assay type: in vivo; conditions: 500 g al/ha, 14 days after application
Please state the value as a number alone, without comment.

The molecule O=c1n(-c2cc(Oc3ccc([N+](=O)[O-])cc3C(F)(F)F)c(Cl)cc2F)c(=S)n2n1CCCC2 showed IPOHE phytotoxicity rating (0-100) equal to 85

The molecule Cn1nc(-c2cc(Oc3ncccc3C#N)c(Cl)cc2F)c(Cl)c1C(F)(F)F showed IPOHE phytotoxicity rating (0-100) equal to 10

The molecule O=c1sc(=Nc2cc(Oc3ncccn3)c(Cl)cc2F)n2n1CCCC2 showed IPOHE phytotoxicity rating (0-100) equal to 100

The molecule Cn1nc(-c2cc(Oc3ncccc3[N+](=O)[O-])c(Cl)cc2F)c(Cl)c1C(F)(F)F showed IPOHE phytotoxicity rating (0-100) equal to 100

The molecule Cn1nc(-c2cc(Oc3cccc(F)n3)c(Cl)cc2F)c(Cl)c1C(F)(F)F showed IPOHE phytotoxicity rating (0-100) equal to 100

The molecule COc1cc(OC)nc(Oc2cc(-n3nnn(CCCF)c3=O)c(F)cc2Cl)n1 showed IPOHE phytotoxicity rating (0-100) equal to 70

The molecule O=C1C2=CCCCN2C(=O)N1c1cc(Oc2ncccc2C(F)(F)F)c(Cl)cc1F showed IPOHE phytotoxicity rating (0-100) equal to 99

---

system: large crabgrass (Digitaria sanguinalis, DIGSA); test: Post-emerge greenhouse herbicide test, phytotoxicity rating; type: in vivo; conditions: 500 g al/ha, 14 days after application
Listed next: entries and their corresponding DIGSA phytotoxicity rating (0-100).
Please state the value as a number alone, without comment.

Field: example entries. Status: answers known.
- MOLECULE: "Nc1ccc(Oc2cc(-n3c(=O)n4n(c3=S)CCCC4)c(F)cc2Cl)c(C(F)(F)F)c1 [Compound 8-15]"
  OBS_VALUE: 0
- MOLECULE: "CN1CC(=O)N(c2cc(Oc3ncccn3)c(Cl)cc2F)C1=O [Compound 8-3]"
  OBS_VALUE: 0
- MOLECULE: "Cn1nc(-c2cc(Oc3ccc(C#N)cn3)c(Cl)cc2F)c(Cl)c1C(F)(F)F [Compound 1-4]"
  OBS_VALUE: 40

The molecule O=c1n(CCCF)nnn1-c1cc(Oc2ncccc2C(F)(F)F)c(Cl)cc1F [Compound 6-6] showed DIGSA phytotoxicity rating (0-100) equal to 10
